test system: MOLT-4 leukemia; assay: NCI-60 one-dose screen, 48 h; conditions: 10 µM unless noted
This is part of a sample that, as a whole, favours compounds with a hit. Of some 83,000 tested, about 20% had one in any assay. Activity calls are given as the source filed them. The calls were made as follows: active = growth percent below 10; inactive = the rest.
Classes used: active, inactive

| Compound | Label Value |
| --- | --- |
| O=C(Nc1ccc2[nH]ncc2c1)c1csc(Nc2ccccc2)n1 | inactive |
| COC(=O)c1nc(-c2ccccc2)oc1S(=O)(=O)N1CCN(c2ccc(OC)cc2)CC1 | inactive |
| Cc1cc(N2CCOCC2)nc(N(CCCNc2ccnc3cc(Cl)ccc23)Cc2ccc3c(c2)OCO3)n1 | active |
| C=CCn1c(SCC(=O)Nc2ccc(C(=O)/C=C/c3ccc(Cl)cc3)cc2)nnc1-c1ccccc1 | inactive |
| Cc1ccc(Nc2nc(N)nc(N)c2N=O)cc1Cl | inactive |
| O=S(=O)(c1ccc(NCSc2nc3ccccc3s2)cc1)c1ccc(NCSc2nc3ccccc3s2)cc1 | inactive |
| C=C(c1ccc(C(=O)O)c(F)c1)c1cc2c(cc1C)C(C)(C)C=CC2(C)C | inactive |
| CNc1nc2ncc(-c3c(C)noc3C)cc2n1Cc1ccccc1 | inactive |
| Cn1ccnc1C(=O)/C=C/c1ccc(CC(=O)Nc2cc(F)c(F)c(F)c2)cc1 | active |
| CCCCCCCCNc1ncnc2c1ncn2Cc1nnc2c3ccccc3c(Cl)nn12 | inactive |
| COc1cccc(C2C(C#N)=C(N)Oc3c2ccc2ccccc32)c1 (stereo not given) | inactive |
| CCCn1cnc2c(c1=N)C(c1ccc(Cl)cc1)c1sc3c(F)cccc3c1O2 (stereo not given) | inactive |
| COc1cc(-c2c(-c3ccccc3)c[nH]c2C(=O)NCCCO)c(OC)c2c1OCO2 | inactive |
| C=C(c1ccc(OC)c(/C=C/C(=O)c2cc(OC)c(OC)c(OC)c2)c1)c1cc(OC)c(OC)c(OC)c1 | inactive |
| C=C(C)Cn1c(SCC(=O)c2cccs2)nc2sc3c(c2c1=O)CCCC3 | inactive |
| O=C(/C=C/c1ccco1)Nc1ncc(Cc2ccc(F)cc2)s1 | inactive |
| O=C1CC2C=CCN2C=C1NC(=O)c1ccccc1 (stereo not given) | inactive |
| CCCCCCCCCCCCCC[n+]1ccc2c(C)c3c(c(C)c2c1)c1cc(O)ccc1n3CC | active |
| O=C(NS(=O)(=O)c1ccccc1)n1cc(-c2ccncc2)c(-c2cc(O)cc(Cl)c2)n1 | inactive |
| CN1CC(c2ccccc2)C(C(=O)c2ccc(Br)cc2)C12C(=O)Nc1ccccc12 (stereo not given) | inactive |
| COc1ccc2c(c1)c(-c1nc(-c3cn(C)c4ccncc34)cs1)cn2C | active |
| COc1cc(NC(=O)c2cncnc2Nc2ccc3c(ccn3Cc3cccc(F)c3)c2)cc(OC)c1 | inactive |
| O=C(Nc1ncc(Cc2ccc(Cl)cc2)s1)C1=NCCCCN1 | inactive |
| CCOc1cc(\C=N/N=C(N)/C(N)=N\N=C/c2ccc(O)c(OCC)c2)ccc1O | inactive |
| CCOC(=O)c1c2c(n3ccc(NC(=O)CCN4CCCC4)cc13)C(=O)c1ncccc1C2=O | active |
| COc1cccc(C(=O)Nc2cccc(NC(=O)c3ccccn3)c2)c1 | inactive |
| CC(C)(C)n1cc(-c2ccnc(NCCNS(=O)(=O)c3ccc(Br)cc3)c2)c(-c2cccc(O)c2)n1 | inactive |
| Cc1cc2nc(C(Cl)Cl)nc(-c3ccccc3)n2n1 | inactive |
| COc1ccc(/C=C/C(=O)c2ccc(-n3cc(CN4CCN(c5cc6c(cc5F)c(=O)c(C(=O)O)cn6C5CC5)CC4)nn3)cc2)cc1 | inactive |
| CCCCC/C=C/CCC(=O)N[C@H]1[C@H](Oc2c3cc4cc2Oc2ccc(cc2Cl)[C@@H](O[C@@H]2O[C@H](CO)[C@@H](O)[C@H](O)[C@H]2NC(C)=O)[C@@H]2NC(=O)[C@H](NC(=O)[C@@H]4NC(=O)[C@H]4NC(=O)[C@@H](Cc5ccc(c(Cl)c5)O3)NC(=O)[C@@H](N)c3ccc(O)c(c3)Oc3cc(O)cc4c3)c3ccc(O)c(c3)-c3c(O[C@H]4O[C@H](CO)[C@@H](O)[C@H](O)[C@@H]4O)cc(O)cc3[C@H](C(=O)O)NC2=O)O[C@H](CO)[C@H](O)[C@@H]1O | inactive |
| CC(=O)c1ccc(Nc2nccc(-c3ccc(Cl)cc3)n2)cc1 | inactive |
| CO[C@]12C=C/C(=C(/C(=O)OCc3cccnc3)C(=O)CCCCCCCC[C@]3(OC)C=C/C(=C(/C(=O)OCc4cccnc4)C(=O)CCCCCCCC1)O3)O2 | active |
| COc1cc2c(cc1OC)CC[N+](CCC[N+](C)(C)C)=C2 | inactive |
| COc1cc(OC)cc(C(=O)Nc2cnc(Nc3ccc(N4CCOCC4)nc3)nc2Oc2ccc(C(F)(F)F)cc2)c1 | inactive |
| COC(=O)c1c(C(=O)OC)c2ccc3c4ncccc4ccc3n2c1C(=O)c1ccc(C)cc1 | inactive |
